- test.protocol: total protein half-life in vivo (active degradation + dilution); higher = more stable protein
- setup.conditions: E. coli NCM3722 delta-lon; growth: N-lim chemostat; doubling time 6 h
recorded.metric: total protein half-life in vivo
Dear colleague, please send the value followed by its unit.

Below, 5 sequences whose answers are already recorded.
MKVLVTGATSGLGRNAVEFLCQKGISVRATGRNEAMGKLLEKMGAEFVPADLTELVSSQAKVMLAGIDTLWHCSSFTSPWGTQQAFDLANVRATRRLGEWAVAWGVRNFIHISSPSLYFDYHHHRDIKEDFRPHRFANEFARSKAASEEVINMLSQANPQTRFTILRPQSLFGPHDKVFIPRLAHMMHHYGSILLPHGGSALVDMTYYENAVHAMWLASQEACDKLPSGRVYNITNGEHRTLRSIVQKLIDELNIDCRIRSVPYPMLDMIARSMERLGRKSAKEPPLTHYGVSKLNFDFTLDITRAQEELGYQPVITLDEGIEKTAAWLRDHGKLPR = 5.88 h
MMNFNNVFRWHLPFLFLVLLTFRAAAADTLLILGDSLSAGYRMSASAAWPALLNDKWQSKTSVVNASISGDTSQQGLARLPALLKQHQPRWVLVELGGNDGLRGFQPQQTEQTLRQILQDVKAANAEPLLMQIRLPANYGRRYNEAFSAIYPKLAKEFDVPLLPFFMEEVYLKPQWMQDDGIHPNRDAQPFIADWMAKQLQPLVNHDS [P0ADA1] = 6.67 h
MQKDALNNVHITDEQVLMTPEQLKAAFPLSLQQEAQIADSRKSISDIIAGRDPRLLVVCGPCSIHDPETALEYARRFKALAAEVSDSLYLVMRVYFEKPRTTVGWKGLINDPHMDGSFDVEAGLQIARKLLLELVNMGLPLATEALDPNSPQYLGDLFSWSAIGARTTESQTHREMASGLSMPVGFKNGTDGSLATAINAMRAAAQPHRFVGINQAGQVALLQTQGNPDGHVILRGGKAPNYSPADVAQCEKEMEQAGLRPSLMVDCSHGNSNKDYRRQPAVAESVVAQIKDGNRSIIGLMIESNIHEGNQSSEQPRSEMKYGVSVTDACISWEMTDALLREIHQDLNGQLTARVA = 3.06 h
MPRANEIKKGMVLNYNGKLLLVKDIDIQSPTARGAATLYKMRFSDVRTGLKVEERFKGDDIVDTVTLTRRYVDFSYVDGNEYVFMDKEDYTPYTFTKDQIEEELLFMPEGGMPDMQVLTWDGQLLALELPQTVDLEIVETAPGIKGASASARNKPATLSTGLVIQVPEYLSPGEKIRIHIEERRYMGRAD [P0A6N8] = 5.35 h
MKYQLTALEARVIGCLLEKQVTTPEQYPLSVNGVVTACNQKTNREPVMNLSESEVQEQLDNLVKRHYLRTVSGFGNRVTKYEQRFCNSEFGDLKLSAAEVALITTLLLRGAQTPGELRSRAARMYEFSDMAEVESTLEQLANREDGPFVVRLAREPGKRENRYMHLFSGEVEDQPAVTDMSNAVDGDLQARVEALEIEVAELKQRLDSLLAHLGD = 6.75 h

Can you give me total protein half-life in vivo for all of these, one by one?
1. MKDVVDKCSTKGCAIDIGTVIDNDNCTSKFSRFFATREEAESFMTKLKELAAATSSADEGASVAYKIKDLEGQVELDAAFTFSCQAEMIIFELSLRSLA
2. MNHSLKPWNTFGIDHNAQHIVCAEDEQQLLNAWQYATAEGQPVLILGEGSNVLFLEDYRGTVIINRIKGIEIHDEPDAWYLHVGAGENWHRLVKYTLQEGMPGLENLALIPGCVGSSPIQNIGAYGVELQRVCAYVDSVELATGKQVRLTAKECRFGYRDSIFKHEYQDRFAIVAVGLRLPKEWQPVLTYGDLTRLDPTTVTPQQVFNAVCHMRTTKLPDPKVNGNAGSFFKNPVVSAETAKALLSQFPTAPNYPQADGSVKLAAGWLIDQCQLKGMQIGGAAVHRQQALVLINEDNAKSEDVVQLAHHVRQKVGEKFNVWLEPEVRFIGASGEVSAVETIS
3. MFEYLPELMKGLHTSLTLTVASLIVALILALIFTIILTLKTPVLVWLVRGYITLFTGTPLLVQIFLIYYGPGQFPTLQEYPALWHLLSEPWLCALIALSLNSAAYTTQLFYGAIRAIPEGQWQSCSALGMSKKDTLAILLPYAFKRSLSSYSNEVVLVFKSTSLAYTITLMEVMGYSQLLYGRTYDVMVFGAAGIIYLVVNGLLTLMMRLIERKALAFERRN [P0AE30]
4. MSALNKKSFLTYLKEGGIYVVLLVLLAIIIFQDPTFLSLLNLSNILTQSSVRIIIALGVAGLIVTQGTDLSAGRQVGLAAVVAATLLQSMDNANKVFPEMATMPIALVILIVCAIGAVIGLINGLIIAYLNVTPFITTLGTMIIVYGINSLYYDFVGASPISGFDSGFSTFAQGFVALGSFRLSYITFYALIAVAFVWVLWNKTRFGKNIFAIGGNPEAAKVSGVNVGLNLLMIYALSGVFYAFGGMLEAGRIGSATNNLGFMYELDAIAACVVGGVSFSGGVGTVIGVVTGVIIFTVINYGLTYIGVNPYWQYIIKGAIIIFAVALDSLKYARKK
5. MTMKKLLIIILPVLLSGCSAFNQLVERMQTDTLEYQCDEKPLTVKLNNPRQEVSFVYDNQLLHLKQGISASGARYTDGIYVFWSKGDEATVYKRDRIVLNNCQLQNPQR
6. MKKRVYLIAAVVSGALAVSGCTTNPYTGEREAGKSAIGAGLGSLVGAGIGALSSSKKDRGKGALIGAAAGAALGGGVGYYMDVQEAKLRDKMRGTGVSVTRSGDNIILNMPNNVTFDSSSATLKPAGANTLTGVAMVLKEYPKTAVNVIGYTDSTGGHDLNMRLSQQRADSVASALITQGVDASRIRTQGLGPANPIASNSTAEGKAQNRRVEITLSPL
7. MVKTQRVVITPGEPAGIGPDLVVQLAQREWPVELVVCADATLLTNRAAMLGLPLTLRPYSPNSPAQPQTAGTLTLLPVALRAPVTAGQLAVENGHYVVETLARACDGCLNGEFAALITGPVHKGVINDAGIPFTGHTEFFEERSQAKKVVMMLATEELRVALATTHLPLRDIADAITPALLHEVIAILHHDLRTKFGIAEPRILVCGLNPHAGEGGHMGTEEIDTIIPVLNELRAQGMKLNGPLPADTLFQPKYLDNADAVLAMYHDQGLPVLKYQGFGRGVNITLGLPFIRTSVDHGTALELAGRGKADVGSFITALNLAIKMIVNTQ

Result string:
1: 2.85 h; 2: 3.89 h; 3: 5.01 h; 4: 6.18 h; 5: 6.49 h; 6: 6.16 h; 7: 4.45 h
